Entries and their OD450
Molecular target: T1, human MSLN-hFc protein (Acro, Cat. No. MSN-H5253) (human, UniProt Q13421 296-580)
T1 construct: the method names the coated protein as human MSLN-hFc (Acro); also called human MSLN full-length protein
T1 sequence (Q13421 other isoform, or with tags, fused parts or gaps limits assumed): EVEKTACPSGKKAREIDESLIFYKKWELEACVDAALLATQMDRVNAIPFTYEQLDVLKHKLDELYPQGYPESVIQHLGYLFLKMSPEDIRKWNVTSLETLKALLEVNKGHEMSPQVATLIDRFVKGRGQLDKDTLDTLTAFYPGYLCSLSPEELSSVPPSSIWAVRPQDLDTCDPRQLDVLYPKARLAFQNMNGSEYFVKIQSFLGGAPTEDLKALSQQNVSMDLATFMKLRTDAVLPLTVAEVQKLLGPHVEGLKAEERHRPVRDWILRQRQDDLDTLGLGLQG
Experiment: ELISA on coated antigen, antibody 0.001 nM
Give the quantity in OD450, number only.

Binder	OD450, OD450
F7.44.20-H3 (scFv, not shown: small tags and cut ends, also called S009-F7.44.20 humanized antibody VH1 + VL3) scFv: EVQLVQSGAEVKKPGASVKVSCKASGYTFTDYNMDWVRQAPGQGLEWMGDINPSTGGTIYNQKFNGRVTMTEDKSTSTVYMELSSLRSEDTAVYYCARRRIGTGYFDVWGQGTTVTVSSGGGGSGGGGSGGGGSEIVLTQSPATLSLSPGERATLSCSASSSVISSYLSWYQQKPGQSPRLLIYRTSNLASGIPARFSGSGSGTDYTLTISSLEPEDFAVYYCHQWSSFPYTFGGGTKVEIK	0.04

Would you kindly look at the next entry?
Please report the recorded OD450 for F7.44.20-H11 (scFv, not shown: small tags and cut ends, also called S009-F7.44.20 humanized antibody VH2 + VL3) scFv: EVQLVQSGAEVKKPGASVKVSCKASGYTFTDYNMDWVRQAPGQGLEWMGDINPSTGGTIYNQKFNGRVTMTEDKSASTVYMELSSLRSEDTAVYYCARRRIGTGYFDVWGQGTTVTVSSGGGGSGGGGSGGGGSEIVLTQSPATLSLSPGERATLSCSASSSVISSYLSWYQQKPGQSPRLLIYRTSNLASGIPARFSGSGSGTDYTLTISSLEPEDFAVYYCHQWSSFPYTFGGGTKVEIK .
0.05
